# Tested on: NIH3T3
# protocol_text: qHTS assay to identify novel small-molecules to repurpose for Merkel cell carcinoma treatment (AID 1296009); also: nearly all actives have a fitted effect of over 60% in size
# reported_conditions: MCC and control cell lines, CellTiter-Glo viability, 72 h; at 44.8 µM (top of the series) unless noted
Results filed as inconclusive are left out. Activity calls are given as the source filed them. Calls follow the shape of the dose curve; as a rule, active = well fitted inhibition curve with a large enough effect; inconclusive = small, poorly fitted or top-dose-only effect; inactive = flat fitted curve, though single readings scatter.
endpoint_name: outcome

# annotated cases, reported outcome shown
INSERT INTO measurements (compound, measured_on, experimental_value) VALUES
  ('COC1C2=C(COC2=O)C2(C)CCCC(C)(CO)C2C1OC(=O)c1ccccc1 (stereo not drawn)', 'NIH3T3', 'inactive [at 17.4 µM]'),
  ('CCOC(=O)c1ccnc(CNCC(=O)N(CC)CCN(C)C)c1', 'NIH3T3', 'inactive'),
  ('C[C@]12CC[C@@H]3c4ccc(O[C@@H]5O[C@H](C(=O)O)[C@@H](O)[C@H](O)[C@H]5O)cc4CC[C@H]3[C@@H]1CCC2=O', 'NIH3T3', 'inactive'),
  ('CC(C)(O)C1CC=C(C(=O)OCC2OC(Oc3c(O)cc(C(=O)O)cc3O)C(O)C(O)C2O)CC1 (stereo not drawn)', 'NIH3T3', 'inactive [at 17.4 µM]'),
  ('CC(C(=O)O)C1CCC2(C)C3C(=O)C=C4C(CCC(=O)C4(C)C)C3(C)CCC12C (stereo not drawn)', 'NIH3T3', 'inactive [at 17.4 µM]');

Problem: Indicate its recorded outcome; the compound in question is COc1ccc(C(O[C@@H]2O[C@H](CO)[C@@H](O)[C@H](O)[C@H]2O)C(CO)Oc2ccc(/C=C/CO)cc2OC)cc1O (stereo partly drawn)
Solution: inactive [at 17.4 µM]

Problem: Indicate its recorded outcome; the compound in question is CC1CCC2C(C)(C)CC(C)(CO)C2(O)C1C(=O)O (stereo not drawn)
Solution: inactive

---

# System: Es-2
# protocol_text: Primary qHTS to identify gynecologic anti-cancer compounds using libraries of approved drugs and bioactive compounds (AID 1345084); also: % is scaled to controls: 0 for no effect and ±100 for the full control effect; nearly all actives have a fitted effect of over 55% in size
# reported_conditions: Gynecologic cancer cell panel viability, ATPlite luminescence, 48 h; series mostly up to 57.5 µM
Results filed as inconclusive are left out. Activity calls are given as the source filed them. Calls come from the whole dose curve; as a rule, active = well fitted cell-killing curve with a large enough effect; inconclusive = small, poorly fitted or top-dose-only effect, or effect the other way; inactive = flat fitted curve, though single readings scatter.
endpoint_name: activity change, negative = cytotoxicity

# annotated cases, reported activity change, negative = cytotoxicity shown
INSERT INTO results (molecule, endpoint_name, experimental_value) VALUES
  ('CC1CCC2(O1)C(C)(C)CC(O[C@@H]1O[C@H](CO[C@@H]3OC[C@](O)(CO)[C@H]3O)[C@@H](O)[C@H](O)[C@H]1O)CC2(C)O (stereo not given in full)', 'activity change, negative = cytotoxicity', 'inactive'),
  ('COc1ccc(C(O[C@@H]2O[C@H](CO)[C@@H](O)[C@H](O)[C@H]2O)C(CO)Oc2ccc(/C=C/CO)cc2OC)cc1O (stereo not given in full)', 'activity change, negative = cytotoxicity', 'inactive'),
  ('CC(C)(OC1OC(CO)C(O)C(O)C1O)C1CCC(O)(CO)C2CC(O)C(C)(O)C2C1 (stereo not given)', 'activity change, negative = cytotoxicity', 'inactive'),
  ('C/C=C/C=C/C=C/C(=O)O[C@@H]1C=C(CO)C(O)(C(=O)O)[C@@]2(C)CCCC(C)(C)[C@H]12 (stereo not given in full)', 'activity change, negative = cytotoxicity', 'inactive'),
  ('CC(C)NC[C@H](O)COc1ccc(CCOCC2CC2)cc1', 'activity change, negative = cytotoxicity', 'inactive'),
  ('C[C@@H]1O[C@@H](O[C@H]2[C@H](O[C@H]3CC[C@@]4(C)C(CC[C@]5(C)C4CC=C4[C@@H]6CC(C)(C)CC[C@]6(C(=O)O)CC[C@]45C)[C@]3(C)CO)OC[C@H](O)[C@@H]2O)[C@H](O)[C@H](O[C@@H]2OC[C@@H](O)[C@H](O)[C@H]2O)[C@H]1O (stereo not given in full)', 'activity change, negative = cytotoxicity', '-1.5% [at 11.6 µM] (inactive)');

Problem: Fill in: activity change, negative = cytotoxicity on Es-2, entry O=C(NCC(=O)N1CC[C@H](NC2CCC(O)(c3ccc(-c4ncccn4)cn3)CC2)C1)c1cccc(C(F)(F)F)c1 (stereo not given in full)
Solution: inactive

Problem: Fill in: activity change, negative = cytotoxicity on Es-2, entry CCOc1ccc(-c2ccc(Cn3c(CC(C)(C)C(=O)O)c(SC(C)(C)C)c4cc(OCc5ccc(C)cn5)ccc43)cc2)cn1
Solution: inactive

Problem: Fill in: activity change, negative = cytotoxicity on Es-2, entry CC(=O)O[C@@H]1[C@@H](OC(=O)/C=C/c2ccccc2)[C@H](C)O[C@@H](O[C@H]2[C@@H]3C=CO[C@@H](O[C@@H]4O[C@H](CO)[C@@H](O)[C@H](O)[C@H]4O)[C@@H]3[C@@]3(CO)O[C@@H]23)[C@@H]1OC(C)=O
Solution: inactive
